Data provenance is patent US20210246166A1.

Tested target: recombinant human MASP2 active protease (amino acids 297-686, C-terminal His Tag) (human, UniProt O00187 297-686)
Sequence (O00187 other isoform, or with tags, fused parts or gaps limits assumed): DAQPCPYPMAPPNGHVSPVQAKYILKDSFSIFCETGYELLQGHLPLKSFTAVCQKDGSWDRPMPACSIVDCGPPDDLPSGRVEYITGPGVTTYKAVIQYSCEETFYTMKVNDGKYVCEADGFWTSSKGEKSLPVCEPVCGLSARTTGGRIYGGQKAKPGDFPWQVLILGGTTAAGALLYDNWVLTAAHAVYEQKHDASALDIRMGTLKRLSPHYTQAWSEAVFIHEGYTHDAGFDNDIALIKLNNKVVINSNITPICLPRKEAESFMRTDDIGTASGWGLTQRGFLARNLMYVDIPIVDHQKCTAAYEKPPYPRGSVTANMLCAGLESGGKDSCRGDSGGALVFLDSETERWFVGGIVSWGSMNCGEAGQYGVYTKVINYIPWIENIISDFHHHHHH
Assay info: cell-based or functional assay
Bridge positions count the residues as written; N and C are the ends. Square brackets hold non-standard residues; d marks the D form. Ends that are not written are not given here. tBuAla = CC(C)(C)C[C@H](N)C(=O)O; Pen = CC(C)(S)[C@H](N)C(=O)O; Abu = CC[C@H](N)C(=O)O
Property: human MASP2 IC50 (nM)
Kindly answer with a numeric value in nM, unit omitted.

Assign human MASP2 IC50 to the following record: A[Abu]CSRS[tBuAla]PPI[Pen]IPD-NH2 (disulfide 3-11; N-terminus assumed; SMILES CC[C@H](NC(=O)[C@H](C)N)C(=O)N[C@H]1CSSC(C)(C)[C@@H](C(=O)N[C@H](C(=O)N2CCC[C@H]2C(=O)N[C@@H](CC(=O)O)C(N)=O)[C@@H](C)CC)NC(=O)[C@H]([C@@H](C)CC)NC(=O)[C@@H]2CCCN2C(=O)[C@@H]2CCCN2C(=O)[C@H](CC(C)(C)C)NC(=O)[C@H](CO)NC(=O)[C@H](CCCNC(=N)N)NC(=O)[C@H](CO)NC1=O) [A-(Abu)-C+SRS-((tBu)A)-PPI-(Pen)+IPD-NH2]
68
